target: telomerase enzyme (Homo sapiens); construct: host or cells: HEKn (human primary epidermal keratinocytes); test: Telomerase activation, TELOTAGGG PCR ELISAPLUS kit, HEKn cells; type: cell-based; conditions: 0.5 nM, 24-hour incubation
Sequence (O14746 whole entry): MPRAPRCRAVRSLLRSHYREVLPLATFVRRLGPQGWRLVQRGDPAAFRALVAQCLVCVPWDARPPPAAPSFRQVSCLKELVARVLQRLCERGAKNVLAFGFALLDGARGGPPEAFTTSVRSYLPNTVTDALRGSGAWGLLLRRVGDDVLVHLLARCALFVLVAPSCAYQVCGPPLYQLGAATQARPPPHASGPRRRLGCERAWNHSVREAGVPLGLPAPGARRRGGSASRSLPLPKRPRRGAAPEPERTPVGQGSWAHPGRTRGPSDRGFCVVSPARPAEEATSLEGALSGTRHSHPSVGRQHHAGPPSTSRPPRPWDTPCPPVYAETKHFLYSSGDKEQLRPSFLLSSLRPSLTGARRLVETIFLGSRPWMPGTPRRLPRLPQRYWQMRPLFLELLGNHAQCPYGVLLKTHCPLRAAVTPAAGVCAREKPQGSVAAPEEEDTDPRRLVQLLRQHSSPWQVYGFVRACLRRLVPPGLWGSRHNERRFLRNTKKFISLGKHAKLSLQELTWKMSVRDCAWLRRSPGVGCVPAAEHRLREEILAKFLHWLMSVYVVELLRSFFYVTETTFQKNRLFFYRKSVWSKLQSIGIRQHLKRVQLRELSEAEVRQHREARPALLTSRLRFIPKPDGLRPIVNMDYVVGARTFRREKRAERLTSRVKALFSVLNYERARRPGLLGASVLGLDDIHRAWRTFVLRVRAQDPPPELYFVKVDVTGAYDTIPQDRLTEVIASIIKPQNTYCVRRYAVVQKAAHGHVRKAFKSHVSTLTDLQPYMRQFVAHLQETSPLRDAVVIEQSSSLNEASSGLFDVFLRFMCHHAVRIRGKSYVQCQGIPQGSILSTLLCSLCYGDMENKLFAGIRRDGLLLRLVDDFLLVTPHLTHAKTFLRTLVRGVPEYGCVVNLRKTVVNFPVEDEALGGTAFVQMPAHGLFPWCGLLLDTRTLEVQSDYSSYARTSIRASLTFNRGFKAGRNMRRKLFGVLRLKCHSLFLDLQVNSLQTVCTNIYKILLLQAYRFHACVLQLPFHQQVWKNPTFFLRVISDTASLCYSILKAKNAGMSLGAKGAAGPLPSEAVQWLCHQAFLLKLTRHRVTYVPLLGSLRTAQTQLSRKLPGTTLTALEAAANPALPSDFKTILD
property: Fold increase over negative control (DMSO) (fold)
Provide only the numeric value, understood in fold.

Short answer for CC(C)(O)[C@@H]1CC[C@](C)([C@H]2[C@@H](O)C[C@@]3(C)C4C[C@H](O)C5C(C)(C)[C@@H](O)CC[C@]5(C)C4=CC(=O)[C@]23C)O1 (stereo partly drawn) : Fold increase over negative control (DMSO) was 0.42

Field Fold increase over negative control (DMSO) (entry CC(C)(O)[C@@H]1CC[C@](C)([C@H]2[C@@H](O)C[C@@]3(C)C4C[C@H](O)[C@@H](C(C)(C)O)[C@@]5(CCC(=O)O)C[C@@]45CC[C@]23C)O1 (stereo partly drawn) ) reads 2.08

So, CC(C)(O)[C@@H]1CC[C@](C)([C@H]2[C@@H](O)C[C@@]3(C)C4C[C@H](O)C5C(C)(C)[C@@H](O)CC[C@]5(C)C4=C[C@H](O)[C@]23C)O1 (stereo partly drawn) ? Its Fold increase over negative control (DMSO) was 2.31

Per the records, this compound ( CC(C)(O)[C@@H]1CC[C@](C)([C@H]2[C@@H](O)C[C@@]3(C)C4C[C@H](O)C5C(C)(C)[C@@H](O)CC[C@@]56C[C@@]46C[C@H](O)[C@]23C)O1 (stereo partly drawn) ) has Fold increase over negative control (DMSO) equal to 9.23

Value of measured Fold increase over negative control (DMSO) for the entry C=C(C)[C@@H]1[C@@H](O)CC2C(=CC[C@]3(C)[C@@H]([C@@]4(C)CC[C@@H](C(C)(C)O)O4)[C@@H](O)C[C@@]23C)[C@@]1(C)CCC(=O)O (stereo partly drawn) : 9.01

// recorded Fold increase over negative control (DMSO) for CC(C)(O)[C@@H]1CC[C@](C)([C@H]2[C@@H](O)C[C@@]3(C)C4C[C@H](O)[C@@H](C(C)(C)O)[C@](C)(CCC(=O)O)C4=CC[C@]23C)O1 (stereo partly drawn) : 2.65

Fold increase over negative control (DMSO) reported for this compound CC1(C)OC(=O)CC[C@]23C[C@]24CC[C@]2(C)[C@@H]([C@@]5(C)CC[C@@H](C(C)(C)O)O5)[C@@H](O)C[C@@]2(C)C4C[C@H](O)C13 (stereo partly drawn) : 8.43

GET /value?item= CC1(C)C(=O)CC[C@]2(C)C3=CC[C@]4(C)[C@@H]([C@@]5(C)CC[C@@H](C(C)(C)O)O5)[C@@H](O)C[C@@]4(C)C3C[C@H](O)C12 (stereo partly drawn) &field=Fold increase over negative control (DMSO) returns 9.25

Fold increase over negative control (DMSO) reported for this compound CC1(C)C(=O)CC[C@]23C[C@]24CC[C@]2(C)[C@@H]([C@@]5(C)CC[C@@H](C(C)(C)O)O5)[C@@H](O)C[C@@]2(C)C4C[C@H](O)C13 (stereo partly drawn) : 4.65

Just for reference, patent US20210369738A1 is where these values come from.
